Reported Ki, Melanocortin receptor 3 (Homo sapiens, UniProt P41968).
Bridge positions count the residues as written; N and C are the ends. Square brackets hold non-standard residues; d marks the D form. Peptide text beside a SMILES is read from it. Pen = CC(C)(S)[C@H](N)C(=O)O
Provide the reading as a plain figure in nM.

Use the examples below as a reference point.
# Molecule, Experimental system, Ki [nM]
data = [
    ("CCCC[C@H](NC(=O)[C@@H](NC(=O)[C@@H](N)Cc1ccc(O)cc1)C(C)C)C(=O)N[C@H]1CSSC[C@@H](C(=O)N[C@@H](CCCNC(=N)N)C(=O)N[C@@H](Cc2ccccc2)C(=O)NCC(N)=O)NC(=O)[C@H](Cc2c[nH]c3ccccc23)NC(=O)[C@H](CCCNC(=N)N)NC(=O)[C@H](Cc2ccccc2)NC(=O)[C@H](Cc2cnc[nH]2)NC1=O", "Melanocortin receptor 3 (Homo sapiens, UniProt P41968)", 6.8),
    ("CCCC[C@H](NC(=O)[C@@H](NC(=O)[C@@H](N)Cc1ccc(O)cc1)C(C)C)C(=O)N[C@H]1CSSC[C@H](C(=O)N[C@@H](CCCN=C(N)N)C(=O)N[C@@H](Cc2ccccc2)C(=O)NCC(N)=O)NC(=O)[C@H](Cc2c[nH]c3ccccc23)NC(=O)[C@H](CCCN=C(N)N)NC(=O)[C@H](Cc2ccccc2)NC(=O)[C@H](Cc2c[nH]cn2)NC1=O", "Melanocortin receptor 3 (Homo sapiens, UniProt P41968)", 240),
]

Next:
// query Ki value for entry CC(C)[C@H](NC(=O)[C@@H](N)Cc1ccc(O)cc1)C(=O)N[C@H]1CSSC(C)(C)[C@@H](C(=O)N[C@@H](CCCNC(=N)N)C(=O)N[C@@H](Cc2ccccc2)C(=O)NCC(N)=O)NC(=O)[C@H](Cc2c[nH]c3ccccc23)NC(=O)[C@H](CCCNC(=N)N)NC(=O)[C@H](Cc2ccccc2)NC(=O)[C@H](Cc2cnc[nH]2)NC(=O)CNC1=O (H-YVCGHFRW[Pen]RFG-NH2; disulfide 3-9)
// result 480
